- METHOD DESCRIPTION: Bioavailability in male rats
- Assay type: in vivo
- CONDITION LABEL: rat, plasma, oral, intravenous 1 or 3 mg/kg, peroral 30 mg/kg, n=3, read-out: bioavailability (BA)
Where a name gives a salt, the structure may show the parent alone.
RESULT TYPE: bioavailability
Enter the number, and then the unit.

CN(C)N(C)C(=O)[C@@]1(Cc2ccccc2)CCCN(C(=O)[C@@H](Cc2c[nH]c3ccccc23)NC(=O)C(C)(C)N)C1 [Anamorelin hydrochloride, anamorelin hydrochloride, reference compound]	21%

input: Give its bioavailability value. Item: CC(C)C[C@@H](NC(=O)C(C)(C)N)C(=O)NC1Cc2cccc(N3CCCC3=O)c2N(Cc2ccsc2)C1=O (some centres unmarked) [Example 34a, hydrochloride]
output: 35%
